target: c-Src SH2; experiment: SH2 binding enrichment of the phosphorylated peptide, bacterial display (enrichment ratio); higher = better substrate or ligand; peptides without Tyr show the background;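 further: peptide library displayed on the E. coli surface as eCPX fusions, selected cells deep-sequenced, score is each peptide's frequency after selection divided by its frequency in the input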
Measurement Name: SH2 binding enrichment

FRTGHYLCNAC [GATA1_Y223_D218Y_YF]; 0.743
SRDTCYLVLAV [AMH_Y195_R194C]; 0.453
TPGPNYRPGFN [USH2A_Y463_YF]; 0.416
ALAAPYVLYPG [CEFIP_Y1332]; 0.7
LDFNEYVRDLN [HPRT1_Y198_F199V_YF]; 0.617
DRIVNYSRASV [ATP7A_Y1459_I1464V]; 0.533
EVVGKYSVHNA [MLH1_Y183_R182K]; 0.455
FSGKAYADEER [CRIM1_Y826]; 0.515
ADYPDYKYRPR [SOX11_Y116]; 0.587
